Hi there, I'd appreciate the recorded LogP for every entry that follows.
test: Measurement of LogP values by HPLC on reversed phase columns (EEC directive 79/831 Annex V.A8); format: physicochemical; conditions: Table 1; method [a]: LC-UV, acidic range, 0.1% formic acid in water and acetonitrile as eluent

Guide cases for LogP, answers given:
- Molecule: "N#Cc1cncn1CC(O)(Cc1cccc(F)c1F)c1ccccc1 (stereo not drawn) [I-04]"
  LogP: "2.40^[a]"
- Molecule: "N#Cc1cncn1CC(O)(Cc1ccc(Cl)cc1F)c1ccccc1 (stereo not drawn) [I-18]"
  LogP: "2.98^[a]"
- Molecule: "N#Cc1cncn1CC(O)(Cc1cccc(F)c1F)c1ccc(F)cc1F (stereo not drawn) [I-12]"
  LogP: "2.75^[a]"

Return reported LogP values for all items listed beneath this line.
1. N#Cc1cncn1CC(O)(Cc1ccccc1Cl)c1cc(F)ccc1F (stereo not drawn) [I-28]
2. N#Cc1cncn1CC(O)(Cc1ccc(F)cc1)c1ccc(F)cc1F (stereo not drawn) [I-24]
3. N#Cc1cncn1CC(O)(Cc1ccccc1Cl)c1ccco1 (stereo not drawn) [I-32]
4. N#Cc1cncn1CC(O)(Cc1ccc(F)cc1F)c1ccc(Cl)s1 (stereo not drawn) [I-10]

1. 2.92^[a]
2. 2.73^[a]
3. 2.45^[a]
4. 2.90^[a]

---

assay: Measurement of LogP values by HPLC on reversed phase columns (EEC directive 79/831 Annex V.A8); type: physicochemical; conditions: Table 1; method [a]: LC-UV, acidic range, 0.1% formic acid in water and acetonitrile as eluent
Quantity kind: chromatographic logP
Give bare numbers.

The value of chromatographic logP measured for the compound N#Cc1cncn1CC(O)(Cc1ccc(F)cc1F)c1ccco1 (stereo not shown) turned out to be 2.32

---

assay: Measurement of LogP values by HPLC on reversed phase columns (EEC directive 79/831 Annex V.A8); format: physicochemical; details: Table 2 (formula XVIIa); method [a]: LC-UV, acidic range, 0.1% formic acid in water and acetonitrile as eluent
Quantity kind: LogP

- Molecule: "N#Cc1cncn1CC(=O)Cc1ccccc1Br [XVIIa-06]"
  LogP: "2.02^[a]"

Return reported LogP values for all items listed beneath this line.
1. N#Cc1cncn1CC(=O)Cc1ccccc1F [XVIIa-03]
2. N#Cc1cncn1CC(=O)Cc1cccc(F)c1F [XVIIa-02]

1.75^[a]
1.87^[a]

Return reported LogP values for all items listed beneath this line.
1. N#Cc1cncn1CC(=O)Cc1ccccc1 [XVIIa-04]
2. N#Cc1cncn1CC(=O)Cc1ccccc1Cl [XVIIa-05]
3. N#Cc1cncn1CC(=O)Cc1ccc(Cl)cc1 [XVIIa-07]

["1.65^[a]", "1.82^[a]", "2.14^[a]"]

---

assay: Measurement of LogP values by HPLC on reversed phase columns (EEC directive 79/831 Annex V.A8); format: physicochemical; details: Table 1; method [a]: LC-UV, acidic range, 0.1% formic acid in water and acetonitrile as eluent
Quantity kind: LogP

Guide cases for LogP, answers given:
- Compound: "N#Cc1cncn1CC(O)(Cc1ccccc1F)c1cc(F)ccc1F (centres unmarked) [I-25]"
  LogP: "2.63^[a]"
- Compound: "N#Cc1cncn1CC(O)(Cc1cccc(F)c1F)c1cc(F)ccc1F (centres unmarked) [I-29]"
  LogP: "2.73^[a]"
- Compound: "N#Cc1cncn1CC(O)(Cc1cccc(Cl)c1F)c1ccc(F)cc1F (centres unmarked) [I-22]"
  LogP: "3.06^[a]"

Return reported LogP values for all items listed beneath this line.
1. N#Cc1cncn1CC(O)(Cc1ccc(Cl)cc1F)c1cc(F)ccc1F (centres unmarked) [I-26]
2. N#Cc1cncn1CC(O)(Cc1ccc(Cl)cc1F)c1ccc(F)cc1F (centres unmarked) [I-07]
3. N#Cc1cncn1CC(O)(Cc1ccc(F)cc1F)c1ccccc1 (centres unmarked) [I-09]
4. N#Cc1cncn1CC(O)(Cc1ccccc1Cl)c1ccccc1 (centres unmarked) [I-17]

["3.07^[a]", "3.17^[a]", "2.60^[a]", "2.70^[a]"]
